target: Voltage-gated potassium channel, IKs; KCNQ1(Kv7.1)/KCNE1(MinK) (Homo sapiens, UniProt P15382+P51787); assay: Inhibition of human IKs-channel expressed in Xenopus oocytes; type: cell-based, Oocyte
Sequence (P51787 whole entry): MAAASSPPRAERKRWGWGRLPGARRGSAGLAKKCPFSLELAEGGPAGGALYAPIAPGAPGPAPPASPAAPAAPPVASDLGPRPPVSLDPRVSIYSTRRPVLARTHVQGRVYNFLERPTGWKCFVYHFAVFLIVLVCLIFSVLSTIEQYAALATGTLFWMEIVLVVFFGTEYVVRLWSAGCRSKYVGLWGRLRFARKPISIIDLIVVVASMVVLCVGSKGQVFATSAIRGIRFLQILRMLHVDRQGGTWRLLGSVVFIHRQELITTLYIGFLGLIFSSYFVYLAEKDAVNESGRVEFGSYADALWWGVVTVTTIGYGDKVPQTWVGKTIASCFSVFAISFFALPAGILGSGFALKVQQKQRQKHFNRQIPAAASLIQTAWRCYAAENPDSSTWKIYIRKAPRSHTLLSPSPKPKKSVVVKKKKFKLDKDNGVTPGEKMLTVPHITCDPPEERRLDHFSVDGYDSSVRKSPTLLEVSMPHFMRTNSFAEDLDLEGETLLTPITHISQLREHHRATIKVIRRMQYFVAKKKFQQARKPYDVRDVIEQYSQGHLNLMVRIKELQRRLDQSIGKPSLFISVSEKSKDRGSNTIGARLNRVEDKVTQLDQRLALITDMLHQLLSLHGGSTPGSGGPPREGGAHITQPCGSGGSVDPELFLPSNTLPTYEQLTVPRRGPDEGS
property-name: IC50
Remember to follow the number with its unit.

Query: Sample CN(C1c2cc(OCc3ccccc3)ccc2OC(C)(C)C1O)S(C)(=O)=O (stereo not given) — what was its IC50?
Reply: 200 nM

Query: IC50 lookup needed for CCS(=O)(=O)N(C)C1c2ccccc2OC(C)(C)C1O (stereo not given) , thanks.
Reply: 3100 nM

Query: I would be grateful if you could share the reported IC50 for CCCCOc1ccc2c(c1)C(N(C)S(C)(=O)=O)C(O)C(C)(C)O2 (stereo not given) .
Reply: 250 nM

Query: Entry CN(C1c2cc(Cl)ccc2OC(C)(C)C1O)S(C)(=O)=O (stereo not given) : reported IC50 = ?
Reply: 1100 nM

Query: Entry CCS(=O)(=O)N(C)C1c2cc(C#N)ccc2OC(C)(C)C1O (stereo not given) : reported IC50 = ?
Reply: 6900 nM

Query: GET /values?readout=IC50&item= `CCS(=O)(=O)N(C)[C@@H]1c2cc(OCc3ccccc3)ccc2OC(C)(C)[C@H]1O`
Reply: 400 nM

Query: Look at this molecule and give its reported IC50. `CCS(=O)(=O)N(C)[C@@H]1c2cc(F)ccc2OC(C)(C)[C@H]1O`
Reply: 2200 nM

Query: Can you look up the measured IC50 of CCS(=O)(=O)N(C)C1c2cc(F)ccc2OC(C)(C)C1O (stereo not given) for me?
Reply: 1200 nM

Query: Give the measured IC50 of `CCS(=O)(=O)N(C)[C@H]1c2cc(OCc3ccccc3)ccc2OC(C)(C)[C@@H]1O` .
Reply: 50 nM

Query: Please report the recorded IC50 for CCCCS(=O)(=O)N(C)C1c2cc(C#N)ccc2OC(C)(C)C1O (stereo not given) .
Reply: 58000 nM

====

biological target: Voltage-gated potassium channel, IKs; KCNQ1(Kv7.1)/KCNE1(MinK) (Homo sapiens, UniProt P15382+P51787); assay: Inhibition of human IKs-channel expressed in Xenopus oocytes,(Experiment 1); format: cell-based, Oocyte
property-name: IC50

Query: Which IC50 is reported for this molecule? `CCS(=O)(=O)N(C)[C@H]1c2cc(C#N)ccc2OC(C)(C)[C@@H]1O`
Reply: 5 µM

Query: Which value of IC50 has been reported for `CCS(=O)(=O)N(C)[C@@H]1c2cc(C#N)ccc2OC(C)(C)[C@H]1O` in the records?
Reply: 44.5 µM

src = ChEMBL document CHEMBL1134676
